B1: Protein S100-G, residues 1 to 79; numbered along this chain, P02633 (parent)
chain: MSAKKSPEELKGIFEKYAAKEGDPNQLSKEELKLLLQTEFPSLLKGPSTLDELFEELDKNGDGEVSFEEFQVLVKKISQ

Variants of: B1
Experiment: abundance fitness (aPCA) (normalised: wild type 0, dead -1); higher = more abundant; growth selection in yeast, the domain comes from the species named
Settings: Bos taurus
Decision: abundance fitness >= -0.09 yields TRUE, all other cases yield FALSE.

Answered examples (4):
G22Y: FALSE
K29A: TRUE
G61L: TRUE
Q37G: TRUE

In the following, a different variant is considered.
Incoming: Decide: is the reported value of abundance fitness for `F67R` equal to or greater than -0.09?
Outgoing: FALSE
